Target: Ruminococcus gnavus GUS (RgGUS) (Mediterraneibacter gnavus)
Sequence (A0A2N5PVZ8 1-603): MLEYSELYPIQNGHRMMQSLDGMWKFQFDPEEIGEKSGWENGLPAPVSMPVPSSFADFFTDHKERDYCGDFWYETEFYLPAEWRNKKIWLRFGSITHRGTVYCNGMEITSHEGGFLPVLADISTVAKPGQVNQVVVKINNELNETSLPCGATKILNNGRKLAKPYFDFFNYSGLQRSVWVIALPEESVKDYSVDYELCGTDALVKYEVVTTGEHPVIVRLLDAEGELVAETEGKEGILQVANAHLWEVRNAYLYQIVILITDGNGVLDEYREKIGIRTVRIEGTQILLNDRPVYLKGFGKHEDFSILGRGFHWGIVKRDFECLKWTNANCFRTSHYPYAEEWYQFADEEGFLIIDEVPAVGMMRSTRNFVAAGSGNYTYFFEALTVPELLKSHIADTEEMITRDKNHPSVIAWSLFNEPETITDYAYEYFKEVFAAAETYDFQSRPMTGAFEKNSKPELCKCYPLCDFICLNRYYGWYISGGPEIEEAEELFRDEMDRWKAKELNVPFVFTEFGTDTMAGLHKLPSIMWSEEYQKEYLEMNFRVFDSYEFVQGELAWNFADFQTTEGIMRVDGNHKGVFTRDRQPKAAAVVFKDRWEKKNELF
Test: In vitro inhibition assay (pNPG hydrolysis)
Format: biochemical
Settings: read-out: Inhibitor 1 (IC50, nM) pH 7.5; pH 7.5; pNPG 900 µM
observed-property: IC50

Reported IC50 for CCOc1ccc(NC(=S)N(CCO)Cc2cc3cc(C)cc(C)c3[nH]c2=O)cc1 : what is it?
> 100000 nM
